- EXPERIMENT: compound effects on differentiated 3T3-L1 adipocyte viability – cell-based, 3T3-L1 adipocytes, calcein-AM fluorescence, 48 h, basal, profiling panel (AID 1163); further: test concentration not given here
- CONDITION SUMMARY: 3T3-L1 adipocytes viability, higher = more signal

[
  {
    "MOLECULE": "C=CC[C@]1(C(=O)N2CCCCC2)N=C(c2ccc(OCCCO)cc2)O[C@H]1c1ccccc1CN=[N+]=[N-]",
    "z-score": 0.132
  },
  {
    "MOLECULE": "[N-]=[N+]=Nc1ccccc1[C@@H]1OC(c2ccc(OCCCO)cc2)=N[C@]1(Cc1ccccc1)C(=O)O",
    "z-score": 0.344
  },
  {
    "MOLECULE": "Cc1ccc(S[C@]2(C(=O)NCC(F)(F)F)CC(=O)N(Cc3cc(C(F)(F)F)cc(C(F)(F)F)c3)[C@@H]2c2ccc(CO)cc2)cc1",
    "z-score": -0.547
  },
  {
    "MOLECULE": "Cc1ccc(NN2C(C(O)c3c(F)cccc3Cl)C=CC3C(=O)N(C4CCCCC4)C(=O)C32)cc1 (stereo not drawn)",
    "z-score": -0.617
  },
  {
    "MOLECULE": "COCC(=C=CC[C@H](O)c1ccc(CO)o1)CCO",
    "z-score": -0.651
  },
  {
    "MOLECULE": "C=CCN1C(=O)[C@]2(CCS(=O)(=O)c3ccccc3)N=C(c3ccc(OCCCO)cc3)O[C@@H]2c2ccccc21",
    "z-score": 0.142
  },
  {
    "MOLECULE": "COc1cccc(C)c1NC(=O)O[C@H]1[C@H](OC(=O)Nc2ccccc2-c2ccccc2)[C@H](OC(=O)Nc2ccccc2-c2ccccc2)[C@@H](OC)O[C@@H]1CO",
    "z-score": 0.328
  },
  {
    "MOLECULE": "COc1ccccc1CN1C(=O)c2ccccc2[C@](Cc2ccccc2I)(C(=O)O)[C@@H]1c1ccc(CO)cc1",
    "z-score": -1.03
  }
]

----------
Recorded composite z-score values for a group of compounds are listed next.
- TARGET DESC: Dihydroorotate dehydrogenase (quinone), mitochondrial (Plasmodium falciparum (isolate 3D7)) (UniProt Q08210)
- Sequence (Q08210 whole entry, looked up): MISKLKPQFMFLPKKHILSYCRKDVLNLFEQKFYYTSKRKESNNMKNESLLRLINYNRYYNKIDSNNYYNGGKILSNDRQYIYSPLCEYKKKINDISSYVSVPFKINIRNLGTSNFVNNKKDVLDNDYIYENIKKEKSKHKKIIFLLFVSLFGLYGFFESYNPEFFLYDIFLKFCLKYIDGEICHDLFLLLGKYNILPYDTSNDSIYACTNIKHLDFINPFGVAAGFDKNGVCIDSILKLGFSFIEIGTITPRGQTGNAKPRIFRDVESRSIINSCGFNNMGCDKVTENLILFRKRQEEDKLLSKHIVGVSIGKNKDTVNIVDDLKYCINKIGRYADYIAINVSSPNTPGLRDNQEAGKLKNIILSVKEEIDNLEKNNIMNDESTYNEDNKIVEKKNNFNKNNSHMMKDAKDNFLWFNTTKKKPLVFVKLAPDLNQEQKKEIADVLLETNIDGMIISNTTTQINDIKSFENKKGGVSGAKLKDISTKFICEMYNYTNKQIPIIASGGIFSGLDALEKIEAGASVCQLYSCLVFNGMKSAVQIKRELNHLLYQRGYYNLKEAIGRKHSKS
- EXPERIMENT: inhibition of P. falciparum DHODH – biochemical, C-terminal His tag, absorbance 600 nm, primary screen (AID 1175);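 further: recombinant parasite enzyme with a five histidine tag at its C terminus; test concentration not given here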
- CONDITION SUMMARY: PfDHODH enzyme, DCIP absorbance 600 nm; higher = more signal, called active from +8 up or from −8 down
Active and inactive are the calls of the source.

[
  {
    "COMPOUND": "C=CCC(OC(C)=O)[C@@H]1[C@@H](N(Cc2ccc(-c3cccc(C(F)(F)F)c3)o2)C(=O)c2ccc(-c3ccccc3)cc2)c2cc(OCCCO)ccc2N1C(=O)Cc1ccc2ccccc2c1 (some centres undefined)",
    "composite z-score": "0.306 (inactive)"
  },
  {
    "COMPOUND": "O=C(O)[C@@H]1[C@@H]2C(=O)N(c3ccccc3)C(=O)[C@@H]2C[C@@H]1Sc1ccccc1",
    "composite z-score": "1.2 (inactive)"
  },
  {
    "COMPOUND": "CC(=O)N1CC2(CC2)CC1c1ccccc1 (centres undefined)",
    "composite z-score": "-0.448 (inactive)"
  },
  {
    "COMPOUND": "CN(C)C(=O)[C@@]1(Cc2ccccc2CN=[N+]=[N-])N=C(c2ccc(OCCCO)cc2)O[C@H]1c1ccccc1N=[N+]=[N-]",
    "composite z-score": "1.3 (inactive)"
  }
]
